B1: MIA2 (parent)
chain: SVIEPVQESSFRSRKIAVEDENDL

variants of: B1; experiment: protein stability index of a GFP-peptide fusion (GPS, HEK-293T) (PSI 1-6); higher = more stable; details: c terminus: a fixed tail appended;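 further: lentivirally expressed fusions sorted by FACS into six bins by GFP to DsRed ratio, PSI derived from sequencing read proportions per bin multiplied by bin number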
// label = yes if protein stability index is not less than 5, otherwise no

In: Please tell me: is the variant L24N at or over 5 in terms of protein stability index?
Out: yes

In: Please tell me: is the variant V2P at or over 5 in terms of protein stability index?
Out: yes

In: Please tell me: is the variant S1D at or over 5 in terms of protein stability index?
Out: yes

In: Please tell me: is the variant S13G at or over 5 in terms of protein stability index?
Out: yes

In: Please tell me: is the variant I16E at or over 5 in terms of protein stability index?
Out: yes

In: Please tell me: is the variant V18A at or over 5 in terms of protein stability index?
Out: yes

In: Please tell me: is the variant R12V at or over 5 in terms of protein stability index?
Out: yes

In: Please tell me: is the variant R14V at or over 5 in terms of protein stability index?
Out: yes

In: Please tell me: is the variant I16H at or over 5 in terms of protein stability index?
Out: no

In: Please tell me: is the variant S13H at or over 5 in terms of protein stability index?
Out: yes

In: Please tell me: is the variant D20V at or over 5 in terms of protein stability index?
Out: no

In: Please tell me: is the variant E21A at or over 5 in terms of protein stability index?
Out: no

In: Please tell me: is the variant S9Q at or over 5 in terms of protein stability index?
Out: yes

In: Please tell me: is the variant A17N at or over 5 in terms of protein stability index?
Out: yes

In: Please tell me: is the variant I3M at or over 5 in terms of protein stability index?
Out: yes

In: Please tell me: is the variant I16R at or over 5 in terms of protein stability index?
Out: yes

In: Please tell me: is the variant E4H at or over 5 in terms of protein stability index?
Out: no

In: Please tell me: is the variant D23M at or over 5 in terms of protein stability index?
Out: no

In: Please tell me: is the variant L24Q at or over 5 in terms of protein stability index?
Out: yes

In: Please tell me: is the variant E8I at or over 5 in terms of protein stability index?
Out: no

In: Please tell me: is the variant E19M at or over 5 in terms of protein stability index?
Out: no

In: Please tell me: is the variant V6P at or over 5 in terms of protein stability index?
Out: yes

Hey, just so you know, these numbers are from the supplement of paper PMC10567573.
